# Test system: SF-268
# assay_text: Cytotoxicity assay (cell titer-glo and calcein AM), SF-268
# condition_summary: read-out: Cytotoxicity IC50, SF-268, calcein; SF-268; calcein AM readout; % error in parentheses
# strict inequality: IC50 < 2 µM yields met, everything else yields not met

>  <molecule>
COc1cccc2c1C(=O)c1c(O)c3c(c(O)c1C2=O)C[C@@](O)(C(=O)CO)C[C@@H]3O[C@H]1C[C@H](N)[C@H](O)[C@H](C)O1

>  <group_label>
met

$$$$
>  <molecule>
COc1cc2c(c(OC)c1OC)-c1ccc(OC)c(=O)cc1[C@@H](NC(=O)CN(OC)[C@@H]1O[C@H](CN=[N+]=[N-])[C@H](O)[C@H](O)[C@H]1O)CC2 [Col43, 6-deoxy-6-azido-D-galactoside]

>  <group_label>
not met

$$$$
>  <molecule>
COc1cc2c(c(OC)c1OC)-c1ccc(OC)c(=O)cc1[C@@H](NC(=O)CN(OC)[C@@H]1O[C@H](CO)[C@@H](O[C@H]3O[C@H](CO)[C@@H](O[C@H]4O[C@H](CO)[C@@H](O)[C@H](O)[C@H]4O)[C@H](O)[C@H]3O)[C@H](O)[C@H]1O)CC2 [Col13, maltotrioside]

>  <group_label>
not met

$$$$
>  <molecule>
COc1cc2c(c(OC)c1OC)-c1ccc(OC)c(=O)cc1[C@@H](NC(=O)CN(OC)[C@@H]1O[C@H](C(=O)O)[C@@H](O)[C@H](O)[C@H]1O)CC2 [Col15, D-glucuronoside]

>  <group_label>
met

$$$$
>  <molecule>
COc1cc2c(c(OC)c1OC)-c1ccc(OC)c(=O)cc1[C@@H](NC(=O)CN(OC)[C@@H]1O[C@H](C(=O)O)[C@H](O)[C@H](O)[C@H]1O)CC2 [Col18, D-Galacturonoside]

>  <group_label>
met

$$$$
>  <molecule>
COc1cc2c(c(OC)c1OC)-c1ccc(OC)c(=O)cc1C(NC(=O)CN(OC)C1OCC(O)C(O)C1O)CC2 [Col22, L-riboside]

>  <group_label>
not met

$$$$
>  <molecule>
COc1cc2c(c(OC)c1OC)-c1ccc(OC)c(=O)cc1C(NC(=O)CN(OC)C1CC(O)C(O)C(C)O1)CC2 [Col65, D-Digitoxoside]

>  <group_label>
met

$$$$
>  <molecule>
COc1cc2c(c(OC)c1OC)-c1ccc(OC)c(=O)cc1[C@@H](NC(=O)CN(OC)[C@@H]1O[C@H](CO)[C@@H](N=[N+]=[N-])[C@H](O)[C@H]1O)CC2 [Col44, 4-deoxy-4-azido-D-glucoside]

>  <group_label>
met

$$$$
>  <molecule>
COc1cc2c(c(OC)c1OC)-c1ccc(OC)c(=O)cc1C(NC(=O)CN(OC)C1OC(C)C(O)C(O)C1O)CC2 [Col37, L-rhamnoside]

>  <group_label>
not met

$$$$
>  <molecule>
COc1cc2c(c(OC)c1OC)-c1ccc(OC)c(=O)cc1C(NC(=O)CN(OC)C1OCC(O)C(O)C1O)CC2 [Col17, L-xyloside]

>  <group_label>
not met

$$$$
>  <molecule>
COc1cc2c(c(OC)c1OC)-c1ccc(OC)c(=O)cc1C(NC(=O)CN(OC)C1OCC(O)C(O)C1O)CC2 [Col20, D-arabinoside]

>  <group_label>
not met

$$$$
>  <molecule>
COc1cc2c(c(OC)c1OC)-c1ccc(OC)c(=O)cc1C(NC(=O)CN(OC)C1OCC(O)C(O)C1O)CC2 [Col7, L-lyxoside]

>  <group_label>
not met

$$$$
>  <molecule>
COc1cc2c(c(OC)c1OC)-c1ccc(OC)c(=O)cc1[C@@H](NC(=O)CN(OC)[C@@H]1O[C@H](CO)[C@H](O)[C@H](O)[C@H]1NC(C)=O)CC2 [Col28, N-acetyl-D-galactosaminoside]

>  <group_label>
not met

$$$$
>  <molecule>
COc1cc2c(c(OC)c1OC)-c1ccc(OC)c(=O)cc1C(NC(=O)CN(OC)C1OC(C)C(O)C(O)C1O)CC2 [Col14, L-fucoside]

>  <group_label>
not met

$$$$
>  <molecule>
COc1cc2c(c(OC)c1OC)-c1ccc(OC)c(=O)cc1C(NC(=O)CN(OC)C1OC(COCc3ccccc3)C(OCc3ccccc3)C1OCc1ccccc1)CC2 (centres unmarked)

>  <group_label>
met

$$$$
>  <molecule>
COc1cc2c(c(OC)c1OC)-c1ccc(OC)c(=O)cc1[C@@H](NC(=O)CN(OC)[C@@H]1O[C@H](CO)[C@@H](O)C[C@H]1O)CC2 [Col3, 3-deoxy-D-glucoside]

>  <group_label>
not met

$$$$
>  <molecule>
COc1cc2c(c(OC)c1OC)-c1ccc(OC)c(=O)cc1[C@@H](NC(=O)CN(OC)[C@@H]1O[C@H](CCl)[C@H](O)[C@H](O)[C@H]1O)CC2 [Col41, 6-deoxy-6-chloro-D-galactoside]

>  <group_label>
not met

$$$$
>  <molecule>
COc1cc2c(c(OC)c1OC)-c1ccc(OC)c(=O)cc1[C@@H](NC(=O)CN(OC)[C@@H]1OC[C@@H](O)[C@H](O)[C@@H]1O)CC2 [Col1, D-lyxoside]

>  <group_label>
not met

$$$$
>  <molecule>
COc1cc2c(c(OC)c1OC)-c1ccc(OC)c(=O)cc1[C@@H](NC(=O)CN(OC)[C@@H]1O[C@H](CSC(C)=O)[C@H](O)[C@H](O)[C@H]1O)CC2 [Col68, 6-deoxy-6-thio-acyl-D-galactoside]

>  <group_label>
not met

$$$$
>  <molecule>
COc1cc2c(c(OC)c1OC)-c1ccc(OC)c(=O)cc1[C@@H](NC(=O)CN(OC)[C@H]1C[C@@H](O)[C@H](O)[C@@H](CO)O1)CC2 [Col16, 2-deoxy-D-glucoside]

>  <group_label>
met

$$$$

Each recorded value in this set is attributed to patent US20130012466A1.
